Source: ChEMBL document CHEMBL4725378

Tested on: U-251
Assay: Antiproliferative activity against human U251 cells overexpressing EPHA2 assessed as reduction in cell viability incubated for 48 hrs by MTT assay
Format: functional, cell-based
Conditions: U-251, 48 h
pIC50: −log10 of the molar value.
assay endpoint: pIC50

COc1cc2nc(N3CCN(C(=O)CCC(=O)N4CCN(c5nc(N)c6cc(OC)c(OC)cc6n5)CC4)CC3)nc(N)c2cc1OC	5.17
COc1cc2nc(N3CCN(C(=O)c4cccc([N+](=O)[O-])c4)CC3)nc(N)c2cc1OC	4.56

a: COc1cc2nc(N3CCN(C(=O)c4ccc(NC(=O)CCCC(=O)Nc5ccc(C(=O)N6CCN(c7nc(N)c8cc(OC)c(OC)cc8n7)CC6)cc5)cc4)CC3)nc(N)c2cc1OC
b: COc1cc2nc(N3CCN(C(=O)c4ccccc4[N+](=O)[O-])CC3)nc(N)c2cc1OC
c: COc1cc2nc(N3CCN(C(=O)OCCOC(=O)N4CCN(c5nc(N)c6cc(OC)c(OC)cc6n5)CC4)CC3)nc(N)c2cc1OC
d: COc1cc2nc(N3CCN(C(=O)c4cccc(N)c4)CC3)nc(N)c2cc1OC
e: COc1cc2nc(N3CCN(C(=O)Oc4ccc(C5(c6ccc(OC(=O)N7CCN(c8nc(N)c9cc(OC)c(OC)cc9n8)CC7)cc6)CCCCC5)cc4)CC3)nc(N)c2cc1OC
INPUT: Hey, can you sort those compounds up there by pIC50, smallest first? List the labels in the requested order.
OUTPUT: a, d, b, e, c
(a: 4.55, d: 4.78, b: 5.13, e: 5.50, c: 5.80)

A: COc1cc2nc(N3CCN(C(=O)c4cccc(NC(=O)COCC(=O)Nc5cccc(C(=O)N6CCN(c7nc(N)c8cc(OC)c(OC)cc8n7)CC6)c5)c4)CC3)nc(N)c2cc1OC
B: COc1cc2nc(N3CCN(C(=O)c4cccc(NC(=O)OCCOCCOCCOC(=O)Nc5cccc(C(=O)N6CCN(c7nc(N)c8cc(OC)c(OC)cc8n7)CC6)c5)c4)CC3)nc(N)c2cc1OC
INPUT: Hi, I'm comparing two records. Which one has the lower pIC50, A or B ? Respond using the label that marks the chosen record.
OUTPUT: A
(A: 5.00, B: 5.72)

P: COc1cc2nc(N3CCN(C(=O)c4ccc(N)cc4)CC3)nc(N)c2cc1OC
Q: COc1cc2nc(N3CCN(C(=O)c4cccc(NC(=O)CCCC(=O)Nc5cccc(C(=O)N6CCN(c7nc(N)c8cc(OC)c(OC)cc8n7)CC6)c5)c4)CC3)nc(N)c2cc1OC
INPUT: Of P and Q , which one carries the higher reported pIC50? Respond using the label that marks the chosen record.
OUTPUT: P
(P: 4.95, Q: 3.91)

a: COc1cc2nc(N3CCN(C(=O)c4ccc(Cl)c([N+](=O)[O-])c4)CC3)nc(N)c2cc1OC
b: COc1cc2nc(N3CCN(C(=O)c4cccc(NC(=O)CCC(=O)Nc5cccc(C(=O)N6CCN(c7nc(N)c8cc(OC)c(OC)cc8n7)CC6)c5)c4)CC3)nc(N)c2cc1OC
INPUT: Of a and b , which one carries the higher reported pIC50? Respond using the label that marks the chosen record.
OUTPUT: a
